measurement_protocol: PAMPA permeability
Type: in vitro ADME
value_kind: PAMPA Permeability (×10⁻⁶ cm/s)
State just the number; it will be interpreted in ×10⁻⁶ cm/s.

Incoming: Give the measured PAMPA Permeability of COc1cc(C(=O)N2CCOCC2)ccc1-n1c(=O)ccc2cnc3ccc(-c4ccc(F)cc4)cc3c21 .
Outgoing: 1080

Incoming: Look up PAMPA Permeability: CNC(=O)c1ccc(-n2c(=O)ccc3cnc4ccc(-c5ccc(Cl)cc5)cc4c32)cc1
Outgoing: 1050

Incoming: Param item = CC(C)c1ccc(-c2ccc3ncc4ccc(=O)n(-c5ccc(C(=O)N6CCOCC6)cc5)c4c3c2)cc1 ; retrieve measured PAMPA Permeability.
Outgoing: 13.8

Incoming: Fill in: PAMPA Permeability of O=C(c1ccc(-n2c(=O)ccc3cnc4ccc(-c5ccc(Cl)cc5)cc4c32)cc1)N1CCCC1 is ___
Outgoing: 621

====

For each record, write down the corresponding Microsomal Stability (rat) T1/2.
measurement_protocol: Microsomal stability (rat)
Format: in vitro ADME
condition: rat microsomes

Incoming: Give the measured Microsomal Stability (rat) T1/2 of CS(=O)(=O)c1ccc(-n2c(=O)ccc3cnc4ccc(-c5ccc(N)nc5)cc4c32)cc1Cl [Compound 61] .
Outgoing: >30 min

Incoming: What Microsomal Stability (rat) T1/2 value was documented for this compound, CN(C)CCOc1ccc(-c2ccc3ncc4ccc(=O)n(-c5ccc(C(=O)N6CCOCC6)cc5)c4c3c2)cc1 [Compound 202] ?
Outgoing: >30 min

Incoming: Param item = NC(=O)c1ccc(-n2c(=O)ccc3cnc4ccc(-c5ccc(N)nc5)cc4c32)cc1 [Compound 336] ; retrieve measured Microsomal Stability (rat) T1/2.
Outgoing: >30.0 min

Incoming: Please look up its Microsomal Stability (rat) T1/2: CNCc1ccc(-c2ccc3ncc4ccc(=O)n(-c5ccc(C(=O)N6CCOCC6)cc5)c4c3c2)cc1 [Compound 198]
Outgoing: >30 min

Incoming: I would be grateful if you could share the reported Microsomal Stability (rat) T1/2 for COc1cccc(-c2ccc3ncc4ccc(=O)n(-c5ccc(C(=O)N6CCOCC6)cc5)c4c3c2)c1 [Compound 123] .
Outgoing: 7.3 min

Incoming: I'd like to know its Microsomal Stability (rat) T1/2. The compound in question is Nc1ccc(-c2ccc3ncc4ccc(=O)n(-c5ccc6c(c5)C(=O)NC6)c4c3c2)cn1 [Compound 387]
Outgoing: >30.0 min

Incoming: Name the recorded Microsomal Stability (rat) T1/2 for CN(C)Cc1ccc(-c2ccc3ncc4c(c3c2)n(-c2cccc(C#N)c2)c(=O)n4C)cc1 [Compound 436] .
Outgoing: >30.0 min

====

measurement_protocol: PAMPA permeability
Format: in vitro ADME
Provide the recorded PAMPA Permeability for the entries that follow.
Quick reminder: number only, in ×10⁻⁶ cm/s, skip the unit.

Incoming: Please report the recorded PAMPA Permeability for Cn1c(=O)n(-c2ccc(C(=O)O)cc2)c2c3cc(-c4ccc(Cl)cc4)ccc3ncc21 .
Outgoing: 11

Incoming: Requested read-out: PAMPA Permeability. Entry: Cc1cc(C(=O)NCCN2CCC2)ccc1-n1c(=O)ccc2cnc3ccc(-c4ccc(Cl)cc4)cc3c21
Outgoing: 241

Incoming: Quick one: PAMPA Permeability of O=C(NC1CC1)c1ccc(-n2c(=O)ccc3cnc4ccc(-c5ccc(Cl)cc5)cc4c32)cc1 ?
Outgoing: 33.1

Incoming: Recorded PAMPA Permeability for CCN(CC)CCNC(=O)c1ccc(-n2c(=O)ccc3cnc4ccc(-c5ccc(Cl)cc5)cc4c32)c(C)c1 , please?
Outgoing: 973

Incoming: Data request, read-out PAMPA Permeability, for Cc1cc(C(=O)NCCN2CCCC2)ccc1-n1c(=O)ccc2cnc3ccc(-c4ccc(F)cc4)cc3c21
Outgoing: 510

Incoming: Looking for the measured PAMPA Permeability of Cc1cc(C(=O)NC2CCN(CCN(C)C)CC2)ccc1-n1c(=O)ccc2cnc3ccc(-c4ccc(Cl)cc4)cc3c21 , can you help?
Outgoing: 49.1

Incoming: Which PAMPA Permeability is listed for CN(CCNC(=O)c1ccc(-n2c(=O)ccc3cnc4ccc(-c5ccc(Cl)cc5)cc4c32)cc1)c1ccccc1 ?
Outgoing: 148

Incoming: Given COc1cc(C(=O)NCCN2CCCCC2)ccc1-n1c(=O)ccc2cnc3ccc(-c4ccc(Cl)cc4)cc3c21 , state its recorded PAMPA Permeability.
Outgoing: 664

Incoming: Could you share which PAMPA Permeability value was measured for COc1cc(C(=O)NC2CC2)ccc1-n1c(=O)ccc2cnc3ccc(-c4ccc(F)c(O)c4)cc3c21 ?
Outgoing: 626

Incoming: Please look up its PAMPA Permeability: Cc1cc(C(=O)NCCN(C)c2ccccc2)ccc1-n1c(=O)ccc2cnc3ccc(-c4ccc(Cl)cc4)cc3c21
Outgoing: 3.4

Incoming: Look at this compound and give its reported PAMPA Permeability. O=C(NC1COC1)c1ccc(-n2c(=O)ccc3cnc4ccc(-c5ccc(Cl)cc5)cc4c32)cc1
Outgoing: 364

Incoming: Item under review: Nc1cccc(-c2ccc3ncc4ccc(=O)n(-c5ccc(C(=O)N6CCOCC6)cc5)c4c3c2)c1 . Reported PAMPA Permeability?
Outgoing: 467

Incoming: PAMPA Permeability lookup needed for O=C(NC1CC1)c1ccc(-n2c(=O)ccc3cnc4ccc(-c5ccc(CN6CCCC6)cc5)cc4c32)cc1 , thanks.
Outgoing: 155

Incoming: For the compound CN(C)C(=O)c1ccc(-n2c(=O)ccc3cnc4ccc(-c5ccc(Cl)cc5)cc4c32)cc1 , what PAMPA Permeability is on record?
Outgoing: 315

Incoming: Item under review: CC(C)(N)c1cccc(-c2ccc3ncc4ccc(=O)n(-c5ccc(C(=O)N6CCOCC6)cc5)c4c3c2)c1 . Reported PAMPA Permeability?
Outgoing: 3.5

Incoming: Request the reported PAMPA Permeability associated with O=Cc1ccc(-c2ccc3ncc4ccc(=O)n(-c5ccc(C(=O)N6CCOCC6)cc5)c4c3c2)cc1
Outgoing: 204

Incoming: # PAMPA Permeability lookup, item Cn1c(=O)n(-c2cccc(C#N)c2)c2c3cc(-c4cccc(C#N)c4)ccc3ncc21
Outgoing: 297

Incoming: Look at this compound and give its reported PAMPA Permeability. O=C(NCCN1CCC1)c1ccc(-n2c(=O)ccc3cnc4ccc(-c5ccc(Cl)cc5)cc4c32)cc1
Outgoing: 159

Incoming: Recorded PAMPA Permeability of Cc1cc(C(=O)NC2CC2)ccc1-n1c(=O)ccc2cnc3ccc(-c4ccc(Cl)cc4)nc3c21 , please.
Outgoing: 846

Incoming: Consider the compound CN(C)CCNC(=O)c1ccc(-n2c(=O)ccc3cnc4ccc(-c5ccc(Cl)cc5)cc4c32)cc1 and give its measured PAMPA Permeability.
Outgoing: 802

Incoming: Which PAMPA Permeability value is on record for COc1cc(C(=O)NCCN2CCC2)ccc1-n1c(=O)ccc2cnc3ccc(-c4ccc(Cl)cc4)cc3c21 ?
Outgoing: 353

Incoming: GET /values?readout=PAMPA Permeability&item= CCC(=O)NCCNC(=O)c1ccc(-n2c(=O)ccc3cnc4ccc(-c5ccc(Cl)cc5)cc4c32)cc1
Outgoing: 21.7

Incoming: Quick check: PAMPA Permeability of N#Cc1ccc2ncc3ccc(=O)n(-c4ccc(C(=O)N5CCOCC5)cc4)c3c2c1 ?
Outgoing: 11.7

Incoming: Any idea what its PAMPA Permeability is? The compound is O=C(NC1C2CNCC21)c1ccc(-n2c(=O)ccc3cnc4ccc(-c5ccc(Cl)cc5)cc4c32)cc1 (centres unmarked)
Outgoing: 12.3

====

measurement_protocol: Solubility at pH 7.4
Format: physicochemical
value_kind: Sol @ pH 7.4 (ug/mL)
API: value field is a number in ug/mL; no unit string.

Incoming: So what does the record say about Sol @ pH 7.4 (ug/mL) for CS(=O)(=O)c1ccc(-n2c(=O)ccc3cnc4ccc(-c5ccc(Cl)c(C(N)=O)c5)cc4c32)cc1 [Compound 51] ?
Outgoing: 4.3

Incoming: If you can, please state the reported Sol @ pH 7.4 (ug/mL) value of O=C1NCc2cc(-n3c(=O)ccc4cnc5ccc(-c6ccc(CN7CCOCC7)cc6)cc5c43)ccc21 [Compound 369] .
Outgoing: 15.7

Incoming: # input compound: Nc1ccc(-c2ccc3ncc4ccc(=O)n(-c5ccc6c(c5)C(=O)NC6=O)c4c3c2)cn1 [Compound 395] ; wanted: its Sol @ pH 7.4 (ug/mL)
Outgoing: 11.3

====

measurement_protocol: Solubility at pH 7.4
Format: physicochemical
value_kind: Sol @ pH 7.4 (ug/mL)
The reply should be a number in ug/mL, with the unit left off.

Incoming: # Sol @ pH 7.4 lookup, item NCCc1ccc(-c2ccc3ncc4ccc(=O)n(-c5ccc(C(=O)N6CCOCC6)cc5)c4c3c2)cc1
Outgoing: 28.4

Incoming: Requested read-out: Sol @ pH 7.4. Entry: CN(CCNC(=O)c1ccc(-n2c(=O)ccc3cnc4ccc(-c5ccc(Cl)cc5)cc4c32)cc1)c1ccccc1
Outgoing: 0

Incoming: Fill in: Sol @ pH 7.4 of O=C(NCCN1CCCCC1)c1ccc(-n2c(=O)ccc3cnc4ccc(-c5ccc(Cl)cc5)cc4c32)cc1 is ___
Outgoing: 0

Incoming: // Sol @ pH 7.4 lookup, key: Cn1c(=O)n(-c2cccc(C#N)c2)c2c3cc(-c4ccc(N)cc4)ccc3ncc21
Outgoing: 1.4

Incoming: For Cc1ccc(C#N)cc1-n1c(=O)n(C)c2cnc3ccc(-c4ccc(Cl)c(C#N)c4)cc3c21 , what is its reported Sol @ pH 7.4?
Outgoing: 0

Incoming: Looking for the measured Sol @ pH 7.4 of O=C(NC1CN(CCO)C1)c1ccc(-n2c(=O)ccc3cnc4ccc(-c5ccc(Cl)cc5)cc4c32)cc1 , can you help?
Outgoing: 13.6
